Quick reference for fold induction at 0.008 mg/ml among some compounds
- ASSAY: Genotoxicity in Salmonella typhimurium TA1535 harboring pSK1002 assessed as umu gene induction at 0.008 mg/ml in absence of Sprague-Dawley rat liver S9 fraction after by SOS/umu assay relative to control
- Type: toxicity, organism-based
- TEST_PARAMETERS: salmonella enterica subsp. enterica serovar typhimurium, read-out: FC
A bare number is all that is needed in reply.

COMPOUND: O=[N+]([O-])c1ccc(N2CCN(CCC(O)c3ccc(F)c4ccccc34)CC2)cc1 (stereo unspecified)
MEAS_VALUE: 1.3
//
COMPOUND: N#Cc1ccc(C(O)CCN2CC=C(c3ccc(F)cc3)CC2)cc1 (stereo unspecified)
MEAS_VALUE: 1.1
//
COMPOUND: Nc1ccc(N2CCC(NCCC(O)c3ccc(F)c4ccccc34)CC2)c(C(F)(F)F)c1 (stereo unspecified)
MEAS_VALUE: 1
//
COMPOUND: COc1ccccc1N1CCN(CCC(O)c2ccc(F)cc2)CC1 (stereo in doubt; 66)
MEAS_VALUE: 1
//
COMPOUND: O=[N+]([O-])c1ccccc1N1CCN(CCC(O)c2ccc(F)c3ccccc23)CC1 (stereo unspecified)
MEAS_VALUE: 1.7

Recorded result, COc1ccccc1C1=CCN(CCC(O)c2ccc(F)cc2)CC1 (stereo unspecified) , fold induction at 0.008 mg/ml: 1

For reference, reported fold induction at 0.008 mg/ml for OC(CCN1CCN(C(c2ccccc2)c2ccccc2)CC1)c1ccc(F)c2ccccc12 (stereo unspecified) stands at 1.4

fold induction at 0.008 mg/ml recorded for this compound, OC(CCN1CC=C(c2ccc(F)cc2)CC1)c1ccc2c(c1)OCO2 (stereo unspecified) , is 0.7

Per the records, this compound ( OC(CCN1CCN(C(c2ccccc2)c2ccccc2)CC1)c1ccc(Cl)cc1 (stereo unspecified) ) has fold induction at 0.008 mg/ml equal to 0.9

# fold induction at 0.008 mg/ml of Oc1ccc(C(O)CCN2CC=C(c3ccc(F)cc3)CC2)cc1 (stereo unspecified) = 1.1

Noted for OC(CCN1CCN(c2ccc(F)cc2)CC1)c1ccc(F)c2ccccc12 (stereo unspecified) : its fold induction at 0.008 mg/ml reads 0.5

Memo: COc1ccccc1N1CCN(CCC(O)c2ccc(F)c3ccccc23)CC1 (stereo unspecified) , reported fold induction at 0.008 mg/ml: 1.3

Input OC(CCN1CCN(c2ccccc2C(F)(F)F)CC1)c1ccc(F)c2ccccc12 (stereo in doubt; 55) . Output fold induction at 0.008 mg/ml: 0.9

Summary for this compound, N#Cc1ccc(N2CCC(NCCC(O)c3ccc(F)c4ccccc34)CC2)c(C(F)(F)F)c1 (stereo in doubt; 72) : fold induction at 0.008 mg/ml is 0.8

Memo: COC(=O)c1ccc(C(O)CCN2CC=C(c3ccc(F)cc3)CC2)cc1 (stereo unspecified) , reported fold induction at 0.008 mg/ml: 0.9

Consider COc1ccccc1C1=CCN(CCC(O)c2ccc(F)c3ccccc23)CC1 (stereo unspecified) . Its measured fold induction at 0.008 mg/ml is 0.8

====

- ASSAY: Genotoxicity in Salmonella typhimurium TA1535 harboring pSK1002 assessed as survival at 0.063 mg/ml in absence of Sprague-Dawley rat liver S9 fraction after by SOS/umu assay relative to control
- Assay type: toxicity, organism-based
- TEST_PARAMETERS: salmonella enterica subsp. enterica serovar typhimurium, read-out: Survival
PROPERTY: viability at 0.063 mg/ml (%)
Unit % implied. Number only.

Solved entries:
COMPOUND: O=[N+]([O-])c1ccccc1N1CCN(CCC(O)c2ccc(F)c3ccccc23)CC1 (stereo not drawn)
viability at 0.063 mg/ml, %: 118

COMPOUND: COc1ccccc1C1=CCN(CCC(O)c2ccc(F)c3ccccc23)CC1 (stereo not drawn)
viability at 0.063 mg/ml, %: 90.7

COMPOUND: N#Cc1ccc(N2CCC(NCCC(O)c3ccc(F)c4ccccc34)CC2)c(C(F)(F)F)c1 (stereo in doubt; 72)
viability at 0.063 mg/ml, %: 54.7

COMPOUND: OC(CCN1CC=C(c2ccc(F)cc2)CC1)c1ccc2c(c1)OCO2 (stereo not drawn)
viability at 0.063 mg/ml, %: 96.6

Entry N#Cc1ccc(C(O)CCN2CC=C(c3ccc(F)cc3)CC2)cc1 (stereo not drawn) ; viability at 0.063 mg/ml = 82.3

Per the record, OC(CCN1CCN(c2ccccc2C(F)(F)F)CC1)c1ccc(F)c2ccccc12 (stereo in doubt; 55) has viability at 0.063 mg/ml of 138

For record COc1ccccc1N1CCN(CCC(O)c2ccc(F)c3ccccc23)CC1 (stereo not drawn) the listed viability at 0.063 mg/ml is 61.5

Value of viability at 0.063 mg/ml reported for the compound Nc1ccc(N2CCC(NCCC(O)c3ccc(F)c4ccccc34)CC2)c(C(F)(F)F)c1 (stereo not drawn) is 27.7

====

- ASSAY: Genotoxicity in Salmonella typhimurium TA1535 harboring pSK1002 assessed as survival at 0.016 mg/ml in absence of Sprague-Dawley rat liver S9 fraction after by SOS/umu assay relative to control
- Format: toxicity, organism-based
- TEST_PARAMETERS: salmonella enterica subsp. enterica serovar typhimurium, read-out: Survival
Reported viability at 0.016 mg/ml values for a set of compounds
Provide only the numeric value, understood in %.

Answered cases to consult:
COMPOUND: N#Cc1ccc(N2CCC(NCCC(O)c3ccc(F)c4ccccc34)CC2)c(Br)c1 (stereo unspecified)
PROPERTY: viability at 0.016 mg/ml
MEAS_VALUE: 18.6
//
COMPOUND: COC(=O)c1ccc(C(O)CCN2CC=C(c3ccc(F)cc3)CC2)cc1 (stereo unspecified)
PROPERTY: viability at 0.016 mg/ml
MEAS_VALUE: 89.4
//
COMPOUND: OC(CCN1CCN(c2ccccc2C(F)(F)F)CC1)c1ccc(F)c2ccccc12 (stereo in doubt; 55)
PROPERTY: viability at 0.016 mg/ml
MEAS_VALUE: 94.7

Input COc1ccccc1C1=CCN(CCC(O)c2ccc(F)c3ccccc23)CC1 (stereo unspecified) . Output viability at 0.016 mg/ml: 50.6

The compound listed as COc1ccccc1N1CCN(CCC(O)c2ccc(F)c3ccccc23)CC1 (stereo unspecified) has a reported viability at 0.016 mg/ml of 63

Per the records, this compound ( Oc1ccc(C(O)CCN2CC=C(c3ccc(F)cc3)CC2)cc1 (stereo unspecified) ) has viability at 0.016 mg/ml equal to 94.8

====

- ASSAY: Cytotoxicity against human HepG2A16 cells by MTT assay
- Format: cell-based
- TEST_PARAMETERS: HepG2A16 cells
This listing pairs compounds with measured log10(CC50).
Each number you see is log10 of CC50, and the unit inside the log is µM.

Answered cases to consult:
COMPOUND: OC(CCN1CCN(c2ccc(F)cc2)CC1)c1ccc(F)c2ccccc12 (stereo not given)
MEAS_VALUE: 1.47
//
COMPOUND: COC(=O)c1ccc(C(O)CCN2CCN(C(c3ccccc3)c3ccccc3)CC2)cc1 (stereo not given)
MEAS_VALUE: 1.92
//
COMPOUND: CCN(CC)CCCC(C)Nc1ccnc2cc(Cl)ccc12 (stereo not given)
MEAS_VALUE: 2.14
//
COMPOUND: N#Cc1ccc(N2CCC(NCCC(O)c3ccc(F)c4ccccc34)CC2)c(Br)c1 (stereo not given)
MEAS_VALUE: 0.99

// recorded log10(CC50) for O=[N+]([O-])c1ccc(N2CCC(NCCC(O)c3ccc(F)cc3)CC2)c(C(F)(F)F)c1 (stereo not given) : 1.02

Input O=[N+]([O-])c1ccc(N2CCC(NCCC(O)c3ccc(F)c(Cl)c3)CC2)c(C(F)(F)F)c1 (stereo not given) . Output log10(CC50): 0.66

The value of log10(CC50) measured for the compound O=[N+]([O-])c1ccc(N2CCN(CCC(O)c3ccc(F)c4ccccc34)CC2)cc1 (stereo not given) turned out to be 1.10

The recorded log10(CC50) for entry OC(CCN1CCN(C(c2ccccc2)c2ccccc2)CC1)c1ccc(Cl)cc1 (stereo not given) equals 2.66

Record N#Cc1ccc(N2CCC(NCCC(O)c3ccc(F)c4ccccc34)CC2)c(Cl)c1 (stereo not given) . Reported log10(CC50): 0.90

log10(CC50) for COc1ccccc1C1=CCN(CCC(O)c2ccc(F)c3ccccc23)CC1 (stereo not given) is 1.25

====

- ASSAY: Genotoxicity in Salmonella typhimurium TA1535 harboring pSK1002 assessed as survival at 0.063 mg/ml in presence of Sprague-Dawley rat liver S9 fraction after by SOS/umu assay relative to control
- Assay type: toxicity, organism-based
- TEST_PARAMETERS: salmonella enterica subsp. enterica serovar typhimurium, read-out: Survival
PROPERTY: viability at 0.063 mg/ml (%)
Answer format: numeric, % implied, no suffix.

COMPOUND: OC(CCN1CC=C(c2ccc(F)cc2)CC1)c1ccc2c(c1)OCO2 (stereo not given)
viability at 0.063 mg/ml, %: 105
--
COMPOUND: COc1ccccc1C1=CCN(CCC(O)c2ccc(F)c3ccccc23)CC1 (stereo not given)
viability at 0.063 mg/ml, %: 76
--
COMPOUND: N#Cc1ccc(C(O)CCN2CC=C(c3ccc(F)cc3)CC2)cc1 (stereo not given)
viability at 0.063 mg/ml, %: 101
--
COMPOUND: OC(CCN1CCN(c2ccccc2C(F)(F)F)CC1)c1ccc(F)c2ccccc12 (stereo in doubt; 55)
viability at 0.063 mg/ml, %: 90.8

Entry N#Cc1ccc(N2CCC(NCCC(O)c3ccc(F)c4ccccc34)CC2)c(Cl)c1 (stereo not given) — recorded viability at 0.063 mg/ml = 82.8
